Hey, just so you know, these numbers are from patent US8114880B2.

Target: MTP (Homo sapiens)
Lab note - cut at 40 nM for IC50: Met if strictly below, Not met if not.

*Q* IC50 strictly < 40 nM for this compound? `CC(C)OC(=O)CCNC(=O)[C@@]1(c2ccccc2)CC[C@H](C(=O)N2CCC(NC(=O)c3cccn(C)c3=O)CC2)c2ccccc21`
*A* Not met

*Q* IC50 strictly < 40 nM for this compound? `CN(CC(=O)O)C(=O)[C@@]1(c2ccccc2)CC[C@H](C(=O)N2CCC(NC(=O)c3cccn(C)c3=O)CC2)c2ccccc21`
*A* Not met

*Q* IC50 strictly < 40 nM for this compound? `COC(=O)CNC(=O)[C@@]1(c2ccccc2)CC[C@H](C(=O)N2CCC(NC(=O)c3cccn(C)c3=O)CC2)c2ccccc21`
*A* Not met

*Q* IC50 strictly < 40 nM for this compound? `Cn1cccc(C(=O)NC2CCN(C(=O)[C@H]3CC[C@@](C(=O)N[C@@H](C(=O)OC(C)(C)C)c4ccccc4)(c4ccccc4)c4ccccc43)CC2)c1=O`
*A* Not met

*Q* IC50 strictly < 40 nM for this compound? CCCNC(=O)C1(c2ccccc2)CCC(C(=O)N2CCC(NC(=O)c3ccccc3)CC2)c2ccccc21 (stereo not drawn)
*A* Not met

*Q* IC50 strictly < 40 nM for this compound? `CCOC(=O)CC[C@H](NC(=O)[C@@]1(c2ccccc2)CC[C@H](C(=O)N2CCC(NC(=O)c3ccccc3OC)CC2)c2ccccc21)C(=O)OCC`
*A* Met

###

Assign IC50 to each entry below.
Biological target: MTP (Homo sapiens, UniProt P55157)
Sequence (P55157 19-894, species assumed): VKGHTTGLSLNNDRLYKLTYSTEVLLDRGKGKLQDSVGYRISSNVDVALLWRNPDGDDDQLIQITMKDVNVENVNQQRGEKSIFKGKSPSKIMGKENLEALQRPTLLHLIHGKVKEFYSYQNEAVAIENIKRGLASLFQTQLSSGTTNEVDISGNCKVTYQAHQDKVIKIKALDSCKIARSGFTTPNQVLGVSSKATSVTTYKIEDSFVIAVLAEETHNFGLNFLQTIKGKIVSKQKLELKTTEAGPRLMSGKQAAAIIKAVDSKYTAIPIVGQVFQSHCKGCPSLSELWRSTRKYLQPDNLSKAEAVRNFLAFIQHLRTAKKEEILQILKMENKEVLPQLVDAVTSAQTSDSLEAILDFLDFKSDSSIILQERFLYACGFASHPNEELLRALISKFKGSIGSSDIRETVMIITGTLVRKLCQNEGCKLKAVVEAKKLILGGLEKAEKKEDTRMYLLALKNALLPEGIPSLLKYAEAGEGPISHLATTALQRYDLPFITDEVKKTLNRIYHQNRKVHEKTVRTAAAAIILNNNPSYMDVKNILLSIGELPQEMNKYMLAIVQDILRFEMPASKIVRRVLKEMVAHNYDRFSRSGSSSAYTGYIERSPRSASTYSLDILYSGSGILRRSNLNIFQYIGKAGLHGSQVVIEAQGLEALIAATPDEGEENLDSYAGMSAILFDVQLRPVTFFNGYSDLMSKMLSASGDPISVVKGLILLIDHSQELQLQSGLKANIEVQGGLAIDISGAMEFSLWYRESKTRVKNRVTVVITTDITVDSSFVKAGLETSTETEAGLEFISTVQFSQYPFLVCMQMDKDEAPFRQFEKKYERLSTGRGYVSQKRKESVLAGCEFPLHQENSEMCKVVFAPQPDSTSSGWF
Sequence (P07237 18-508 partner, species assumed): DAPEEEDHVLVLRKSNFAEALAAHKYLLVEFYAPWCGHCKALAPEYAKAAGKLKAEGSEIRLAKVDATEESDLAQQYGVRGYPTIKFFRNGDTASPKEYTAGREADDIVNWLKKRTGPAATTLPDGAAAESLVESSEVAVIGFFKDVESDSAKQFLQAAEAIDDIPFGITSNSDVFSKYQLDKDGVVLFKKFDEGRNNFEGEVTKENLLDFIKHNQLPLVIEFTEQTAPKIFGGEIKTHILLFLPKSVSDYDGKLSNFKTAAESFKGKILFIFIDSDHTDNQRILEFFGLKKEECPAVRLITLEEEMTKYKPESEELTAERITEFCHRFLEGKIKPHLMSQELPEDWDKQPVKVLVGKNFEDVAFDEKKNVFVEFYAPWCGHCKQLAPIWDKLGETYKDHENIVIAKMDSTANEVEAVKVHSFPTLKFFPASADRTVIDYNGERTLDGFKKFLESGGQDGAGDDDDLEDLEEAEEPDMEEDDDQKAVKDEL
Assay: MTP assay (triglyceride transfer from donor to acceptor vesicles)
Assay type: biochemical
Conditions: MTP activity, percent triglyceride transfer from donor to acceptor vesicles, 37° C.
The answer is to be given in nM; state only the numeric part.

*Q* // lookup IC50 for CC(C)[C@H](NC(=O)[C@@]1(c2ccccc2)CC[C@H](C(=O)N2CCC(NC(=O)c3cccn(C)c3=O)CC2)c2ccccc21)C(=O)OC(C)(C)C [Co. No. 165]
*A* 506

*Q* // lookup IC50 for COc1ccccc1C(=O)NC1CCN(C(=O)[C@H]2CC[C@@](C(=O)N[C@@H](C(=O)OC(C)(C)C)c3ccccc3)(c3ccccc3)c3ccccc32)CC1 [Co. No. 95]
*A* 140

*Q* // lookup IC50 for COC(=O)CC[C@H](NC(=O)[C@@]1(c2ccccc2)CC[C@H](C(=O)N2CCC(NC(=O)c3cccn(C)c3=O)CC2)c2ccccc21)C(=O)OC [Co. No. 145]
*A* 5380

*Q* // lookup IC50 for CCNC(=O)[C@]1(c2ccccc2)CC[C@@H](C(=O)N2CC[C@@H](NC(=O)c3ccccc3OC)[C@@H](OC)C2)c2ccccc21 [Co. No. 20]
*A* 12.6

###

// IC50 collected for MTP (Homo sapiens)
The answer is to be given in µM; state only the numeric part.

*Q* // lookup IC50 for COc1ccccc1C(=O)NC1CCN(C(=O)[C@H]2CC[C@@](C(=O)N[C@H](Cc3ccccc3)C(=O)O)(c3ccccc3)c3ccccc32)CC1 [Co. No. 100]
*A* 6.05

*Q* // lookup IC50 for COC(=O)CCCNC(=O)[C@@]1(c2ccccc2)CC[C@H](C(=O)N2CCC(NC(=O)c3cccn(C)c3=O)CC2)c2ccccc21 [Co. No. 224]
*A* 1.14

*Q* // lookup IC50 for COc1ccccc1C(=O)NC1CCN(C(=O)[C@H]2CC[C@@](C(=O)N[C@@H](Cc3ccc(O)cc3)C(=O)O)(c3ccccc3)c3ccccc32)CC1 [Co. No. 126]
*A* 6.19

*Q* // lookup IC50 for CCOC(=O)C[C@H](NC(=O)[C@@]1(c2ccccc2)CC[C@H](C(=O)N2CCC(NC(=O)c3cccn(C)c3=O)CC2)c2ccccc21)C(=O)OCC [Co. No. 143]
*A* 1.92

*Q* // lookup IC50 for CCOC(=O)[C@@H](C)NC(=O)[C@@]1(c2ccccc2)CC[C@H](C(=O)N2CCC(NC(=O)c3ccccc3OC)CC2)c2ccccc21 [Co. No. 67]
*A* 0.0202

*Q* // lookup IC50 for COc1ccccc1C(=O)NC1CCN(C(=O)[C@H]2CC[C@@](C(=O)N3CCC[C@H]3C(=O)O)(c3ccccc3)c3ccccc32)CC1 [Co. No. 123]
*A* 3.82

*Q* // lookup IC50 for CCNC(=O)[C@]1(c2ccccc2)CC[C@@H](C(=O)N2CCC(NC(=O)c3ccccc3OC)CC2)c2ccccc21 [Co. No. 38]
*A* 3.82

*Q* // lookup IC50 for COc1ccccc1C(=O)NC1CCN(C(=O)[C@H]2CC[C@@](C(=O)N[C@@H](C)C(=O)O)(c3ccccc3)c3ccccc32)CC1 [Co. No. 116]
*A* 8.41

*Q* // lookup IC50 for COc1ccccc1C(=O)NC1CCN(C(=O)[C@H]2CC[C@@](C(=O)N[C@H](C(=O)OC(C)(C)C)C(C)C)(c3ccccc3)c3ccccc32)CC1 [Co. No. 102]
*A* 0.0136
